Target: 5-hydroxytryptamine receptor 2C (Rattus norvegicus)
Sequence (P08909 whole entry): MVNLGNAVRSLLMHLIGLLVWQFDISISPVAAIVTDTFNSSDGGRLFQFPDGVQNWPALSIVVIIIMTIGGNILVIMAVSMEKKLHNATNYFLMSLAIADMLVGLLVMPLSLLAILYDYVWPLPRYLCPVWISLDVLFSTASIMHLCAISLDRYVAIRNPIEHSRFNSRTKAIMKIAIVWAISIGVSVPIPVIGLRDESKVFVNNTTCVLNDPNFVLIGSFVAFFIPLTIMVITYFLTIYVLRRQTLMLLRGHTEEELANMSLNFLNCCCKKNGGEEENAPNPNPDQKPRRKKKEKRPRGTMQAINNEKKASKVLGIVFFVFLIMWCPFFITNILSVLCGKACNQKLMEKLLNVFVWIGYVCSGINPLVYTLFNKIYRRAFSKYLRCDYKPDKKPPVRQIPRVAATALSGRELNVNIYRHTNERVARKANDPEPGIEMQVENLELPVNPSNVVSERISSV
pKi: −log10 of the molar value.
Returns one of fulfilled or not fulfilled; fulfilled when pKi is >= 7.

CN(C)CCc1c[nH]c2cc(F)cc(O)c12 ... fulfilled
COc1cc2c(CCN(C)C)c[nH]c2cc1F ... fulfilled
CCN(CC)CCc1c[nH]c2cc(F)ccc12 ... not fulfilled
COc1ccc2[nH]cc(CCN(C)C)c2c1F ... fulfilled
CCN(CC)CCc1c[nH]c2ccc(OC)cc12 ... fulfilled

Okay, now this molecule:
Dear colleague, could you confirm whether CN(C)CCc1c[nH]c2c(F)ccc(O)c12 has pKi at or above 7?
fulfilled

====

Below, each entry is listed with its recorded EC50.
Molecular target: 5-hydroxytryptamine receptor 2A (Rattus norvegicus)
Sequence (P14842 whole entry): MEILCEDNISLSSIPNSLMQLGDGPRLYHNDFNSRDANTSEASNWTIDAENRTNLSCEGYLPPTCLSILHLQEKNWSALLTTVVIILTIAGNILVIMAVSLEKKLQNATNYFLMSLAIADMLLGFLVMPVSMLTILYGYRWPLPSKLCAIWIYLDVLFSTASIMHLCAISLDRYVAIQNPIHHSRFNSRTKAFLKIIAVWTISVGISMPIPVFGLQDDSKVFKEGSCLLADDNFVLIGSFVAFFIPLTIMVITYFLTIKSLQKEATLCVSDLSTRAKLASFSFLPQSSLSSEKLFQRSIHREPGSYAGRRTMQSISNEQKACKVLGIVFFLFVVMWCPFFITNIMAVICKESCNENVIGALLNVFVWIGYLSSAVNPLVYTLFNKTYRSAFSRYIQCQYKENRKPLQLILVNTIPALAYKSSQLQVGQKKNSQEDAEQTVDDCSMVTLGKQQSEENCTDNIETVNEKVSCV
Assay: Evaluated for the effective concentration at [125I]-DOI-labeled rat 5-hydroxytryptamine 2A receptor
Numeric only. Scale: µM

CN(C)CCc1c[nH]c2c(F)ccc(O)c12 ... 4.92

Can you share its EC50? I mean this compound: CCN(CC)CCc1c[nH]c2cc(F)ccc12
33.9

Consider the compound shown here: COc1cc2c(CCN(C)C)c[nH]c2cc1F What is its recorded EC50?
7.9

Entry CCN(CC)CCc1c[nH]c2ccccc12 : reported EC50 = ?
5.37

So what's the measured EC50 for this one? CCN(CC)CCc1c[nH]c2ccc(OC)cc12
2.39

Field request: EC50 | item: COc1ccc2[nH]cc(CCN(C)C)c2c1F
18.1

I'd like to know its EC50. The compound in question is CN(C)CCc1c[nH]c2cc(F)cc(O)c12
2.6

Hey, just so you know, these numbers are from ChEMBL document CHEMBL1133543.
